- Tested on: MDA-MB-468
- protocol notes: phospho-S6 immunofluorescence (DAPI-normalised), per-plate z-score; higher = higher phospho-S6 signal (less pathway suppression)
- reported conditions: co-treatment: lapatinib 1 uM; 24 h
Structures can show the parent of a compound that is named as a salt.
Please mark label 1 if the recorded phospho-S6 immunofluorescence (z-score) is equal to or greater than 0.9, and label 0 if it falls below.

Would you please look over these solved cases?
# compound, experimental target, class assignment
measured = [
    ("N=C(N)NCCC[C@@H](NC(=O)[C@@H]1CCCN1C(=O)[C@@H]1CSSCCC(=O)N[C@@H](Cc2ccc(O)cc2)C(=O)N[C@@H](Cc2ccccc2)C(=O)N[C@@H](CCC(N)=O)C(=O)N[C@@H](CC(N)=O)C(=O)N1)C(=O)NCC(N)=O [Desmopressin (Acetate)] (compound 10 µM)", "MDA-MB-468", "label 0"),
    ("CCc1cc2c(cc1CC)CC(NC[C@H](O)c1ccc(O)c3[nH]c(=O)ccc13)C2 [Indacaterol (maleate)] (compound 10 µM)", "MDA-MB-468", "label 0"),
    ("OCCOCCN1CCN(C(c2ccccc2)c2ccccc2)CC1 [Decloxizine (dihydrochloride)] (compound 10 µM)", "MDA-MB-468", "label 0"),
]

Threshold query (phospho-S6 immunofluorescence (z-score) >= 0.9) on CCCC(=O)OC(CNC(C)(C)C)COc1nsnc1N1CCOCC1 (racemic) [(RS)-Butyryltimolol] (compound 10 µM) label 0

Threshold query (phospho-S6 immunofluorescence (z-score) >= 0.9) on CC1=C(C)C(=O)C(C(CCCCCC(=O)O)c2ccccc2)=C(C)C1=O (stereo not drawn) [Seratrodast] (compound 10 µM) label 1

Threshold query (phospho-S6 immunofluorescence (z-score) >= 0.9) on CN(C)CCOC(c1ccccc1)c1ccccc1.Cn1c(=O)c2[nH]c(Cl)nc2n(C)c1=O [Dimenhydrinate] (compound 10 µM) label 0

Threshold query (phospho-S6 immunofluorescence (z-score) >= 0.9) on C[C@]12C=CC(=O)C=C1CC[C@@H]1[C@@H]2[C@@H](O)C[C@@]2(C)[C@H]1CC[C@]2(O)C(=O)CO [Prednisolone] (compound 10 µM) label 1

Threshold query (phospho-S6 immunofluorescence (z-score) >= 0.9) on Cc1cc(C(C)(C)C)cc(C)c1CC1=NCCN1 [Xylometazoline (hydrochloride)] (compound 10 µM) label 0

Threshold query (phospho-S6 immunofluorescence (z-score) >= 0.9) on O=C(O)Cn1c2c(c3cc(F)ccc31)CN(C(=O)c1cccc3ccccc13)CC2 [Setipiprant] (compound 10 µM) label 0

Threshold query (phospho-S6 immunofluorescence (z-score) >= 0.9) on Cc1cc2c(cc1CC(=O)c1sccc1S(=O)(=O)Nc1onc(C)c1Cl)OCO2 [Sitaxsentan (sodium)] (compound 10 µM) label 0

Threshold query (phospho-S6 immunofluorescence (z-score) >= 0.9) on Cc1cccn2c(=O)c(C=C(C#N)c3nc4ccccc4s3)c(Oc3ccc(F)cc3)nc12 (compound 10 µM) label 1

Threshold query (phospho-S6 immunofluorescence (z-score) >= 0.9) on O=C(Nc1ccc(Cl)cc1CN1C(=O)c2ccccc2C1=O)c1ccccc1O (compound 10 µM) label 0

###

- System: MDA-MB-468
- protocol notes: phospho-S6 immunofluorescence (DAPI-normalised), per-plate z-score; higher = higher phospho-S6 signal (less pathway suppression)
- reported conditions: co-treatment: vehicle; 24 h
Counter-ions that a name gives are not always drawn.
Binned phospho-S6 immunofluorescence (z-score); ranges: lowest: < -0.5; middle: ≥ -0.5 and < 0.5; highest: ≥ 0.5

# molecule, class assignment
rows = [
    ("CCCC1O[C@@H]2C[C@H]3[C@@H]4CCC5=CC(=O)C=C[C@]5(C)[C@H]4[C@@H](O)C[C@]3(C)[C@]2(C(=O)CO)O1 (some centres not stated) [Budesonide] (compound 10 µM)", "middle"),
    ("COc1ccccc1N1CCN(CCCCN2C(=O)c3ccccc3C2=O)CC1 [NAN-190 (hydrobromide)] (compound 10 µM)", "middle"),
    ("CCCCCCn1c(O)c(N=NC(=O)c2ccccc2)c2ccccc21 (compound 10 µM)", "highest"),
    ("C#CCOc1ccc2c(c1)c(-c1ccc(C(C)C)cc1)nc(=O)n2C(C)C [Calcium-Sensing Receptor Antagonists I] (compound 10 µM)", "lowest"),
    ("c1ccc(NCc2ccc(CNc3ccccn3)cc2)nc1 (compound 10 µM)", "highest"),
    ("CCNC(=O)[C@@H]1CCCN1C(=O)[C@H](CCCNC(=N)N)NC(=O)[C@H](CC(C)C)NC(=O)[C@@H](COC(C)(C)C)NC(=O)[C@H](Cc1ccc(O)cc1)NC(=O)[C@H](CO)NC(=O)[C@H](Cc1c[nH]c2ccccc12)NC(=O)[C@H](Cc1cnc[nH]1)NC(=O)[C@@H]1CCC(=O)N1 [Buserelin (Acetate)] (compound 10 µM)", "highest"),
    ("COc1ccccc1OCCNCC(O)COc1cccc2[nH]c3ccccc3c12 (configuration not stated) [Carvedilol] (compound 10 µM)", "lowest"),
    ("CCOC(=O)c1ccc(-n2cc(Cc3cnc(OCC)nc3)c(=O)nc2SCc2ccc(F)cc2)cc1 (compound 10 µM)", "lowest"),
    ("CCNC(=O)[C@@H]1CCCN1C(=O)[C@H](CCCN=C(N)N)NC(=O)[C@H](CC(C)C)NC(=O)[C@@H](C)NC(=O)[C@H](Cc1ccc(O)cc1)NC(=O)[C@H](CO)NC(=O)[C@H](Cc1c[nH]c2ccccc12)NC(=O)[C@H](Cc1cnc[nH]1)NC(=O)[C@@H]1CCC(=O)N1 [Alarelin (Acetate)] (compound 10 µM)", "highest"),
    ("Cc1nccn1CC1CCc2c(c3ccccc3n2C)C1=O (configuration not stated) [Ondansetron (hydrochloride dihydrate)] (compound 10 µM)", "middle"),
]

Kindly state the category for this molecule: CCN1CCCC1CNC(=O)c1cc(S(N)(=O)=O)ccc1OC (configuration not stated) [Sulpiride] (compound 10 µM) middle

Origin of the recorded values: the supplement of paper PMC7411640
